Tested on: MDAMB361
Assay: GRmax, 72 h; higher = less effect;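 note: breast cell lines in 384-well plates, nine doses across a 10^4 range, Dye Drop imaging of viable cells vs DMSO and time-zero plates, GR 0 means no net growth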
measurement.kind: GRmax, 72 h (GR)
Give the number; GR is assumed, so skip it.

compound="CC1(N)CCN(c2cnc(-c3cccc(Cl)c3Cl)c(N)n2)CC1 [SHP099] (max 10 µM)" unit_name=GR numeric_value=0.626
compound="Nc1ccc(-c2ccc3ncc4ccc(=O)n(-c5cccc(C(F)(F)F)c5)c4c3c2)cn1 [Torin2] (max 1 µM)" unit_name=GR numeric_value=-0.964

Query block: Find the recorded GRmax, 72 h belonging to CC(C)Nc1cc(-c2c[nH]c(C(=O)N[C@H](CO)c3cccc(Cl)c3)c2)c(Cl)cn1 [BVD523] (max 10 µM) and report it.
Result block: 0.27

Query block: Find the recorded GRmax, 72 h belonging to O=C1NC(=O)[C@@H](c2cn3c4c(cccc24)CCC3)[C@@H]1c1c[nH]c2ccccc12 [Tivantinib/ARQ197] (max 10 µM) and report it.
Result block: -0.606

Query block: Find the recorded GRmax, 72 h belonging to CCOc1cc2ncc(C#N)c(Nc3ccc(OCc4ccccn4)c(Cl)c3)c2cc1NC(=O)/C=C/CN(C)C [Neratinib/HKI272] (max 3.162 µM) and report it.
Result block: -0.528

Query block: Find the recorded GRmax, 72 h belonging to CC(C)n1nc(-c2ccc3oc(N)nc3c2)c2c(N)ncnc21 [INK128/MLN0128] (max 3.162 µM) and report it.
Result block: -0.846

Query block: Find the recorded GRmax, 72 h belonging to CO[C@H]1C[C@@H]2CC[C@@H](C)[C@@](O)(O2)C(=O)C(=O)N2CCCC[C@H]2C(=O)O[C@H]([C@H](C)C[C@@H]2CC[C@@H](OCCO)[C@H](OC)C2)CC(=O)[C@H](C)/C=C(\C)[C@@H](O)[C@@H](OC)C(=O)[C@H](C)C[C@H](C)/C=C/C=C/C=C/1C [Everolimus] (max 10 µM) and report it.
Result block: 0.0574

###

System: MDAMB175VII
Test: area over the GR curve, 72 h; higher = more effect;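 note: Dye Drop or Deep Dye Drop imaging of viable cells in 384-well plates (Hoechst nuclei, LIVE/DEAD dye), nine half-log doses, GR normalized to DMSO controls and time-zero plates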
measurement.kind: area over the GR curve (GR)
Give the number; GR is assumed, so skip it.

Consider the following illustrative entries.
compound="CCOc1cc2ncc(C#N)c(Nc3ccc(OCc4ccccn4)c(Cl)c3)c2cc1NC(=O)/C=C/CN(C)C [Neratinib/HKI272] (max 3.162 µM)" unit_name=GR numeric_value=1.45
compound=CCC(=O)Nc1ccc(C(=O)Nc2ccc(Nc3ncc4c(n3)N(C)c3ccc(C)cc3C(=O)N4C)cc2)cc1 unit_name=GR numeric_value=0.919
compound="C[C@@H]1COCCN1c1cc(C2([S@](C)(=N)=O)CC2)nc(-c2cc[nH]c3nccc2-3)n1 [AZD6738] (max 10 µM)" unit_name=GR numeric_value=0.063
compound="CN(C)CC[C@H](CSc1ccccc1)Nc1ccc(S(=O)(=O)NC(=O)c2ccc(N3CCN(Cc4ccccc4-c4ccc(Cl)cc4)CC3)cc2)cc1[N+](=O)[O-] [ABT-737] (max 10 µM)" unit_name=GR numeric_value=0.0499
compound="O=C1NC(=NCc2cccs2)SC1=Cc1ccc2ncccc2c1 [R0-3306] (max 10 µM)" unit_name=GR numeric_value=0.239

Here is another compound to look at.
Query block: Find the recorded area over the GR curve belonging to CNC(=O)c1cccc(-c2ccc3c(N4CCOC[C@@H]4C)nc(N4CCOC[C@@H]4C)nc3n2)c1 [AZD2014] (max 10 µM) and report it.
Result block: 1.35
